Biological target: human hNET (Homo sapiens)
Sequence (P23975 whole entry): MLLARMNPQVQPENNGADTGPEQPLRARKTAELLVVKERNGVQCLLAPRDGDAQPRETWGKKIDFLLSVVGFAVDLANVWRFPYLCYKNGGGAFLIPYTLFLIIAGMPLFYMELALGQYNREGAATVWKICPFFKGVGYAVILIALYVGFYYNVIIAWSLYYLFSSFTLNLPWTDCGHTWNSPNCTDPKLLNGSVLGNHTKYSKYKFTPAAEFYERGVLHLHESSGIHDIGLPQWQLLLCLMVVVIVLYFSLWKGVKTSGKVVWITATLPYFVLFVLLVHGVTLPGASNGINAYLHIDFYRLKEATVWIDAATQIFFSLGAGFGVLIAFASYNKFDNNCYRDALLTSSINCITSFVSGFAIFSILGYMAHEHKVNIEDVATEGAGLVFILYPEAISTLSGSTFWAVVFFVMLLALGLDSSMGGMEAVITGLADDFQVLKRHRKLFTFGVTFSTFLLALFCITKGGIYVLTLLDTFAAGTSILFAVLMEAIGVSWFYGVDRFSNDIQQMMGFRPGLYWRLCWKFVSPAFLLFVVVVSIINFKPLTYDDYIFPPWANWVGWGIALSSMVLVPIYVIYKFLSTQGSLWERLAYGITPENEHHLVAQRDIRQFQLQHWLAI
Test: Norepinephrine (NE) uptake assay in MDCK-Net6 cells
Conditions: [3H]NE uptake, MDCK-Net6 cells stably transfected with hNET
Structures can show the parent of a compound that is named as a salt.
readout.type: pEC50
On this scale, pEC50 is minus log10 of a concentration expressed in M (mol/L).

Q: Please tell me: pEC50 of CNC[C@@H](O)[C@H](c1cccc(F)c1)n1cc(-c2ccccc2OC(C)C)c2ccccc21 [Example 35, hydrochloride] , system human hNET (Homo sapiens)?
Result: 6.77

Q: Try this compound next: CNC[C@@H](O)[C@H](c1cccc(F)c1)N1C(=O)C2(CCC2)c2cccc(F)c21 [Example 116, hydrochloride]
Result: 8.00

Q: Try this compound next: CNC[C@@H](O)[C@H](c1ccccc1)N1C(=O)C2(CCCCC2)c2cccc(Cl)c21 [Example 31, hydrochloride]
Result: 7.49

Q: Try this compound next: CNC[C@@H](O)[C@H](c1ccccc1)N1C(=O)C2(CCCCC2)c2cc(OC)ccc21 [Example 105, hydrochloride]
Result: 7.09

Q: Try this compound next: CNC[C@@H](O)[C@H](c1ccccc1)n1ccc2cc(C#Cc3ccccc3)ccc21 [Example 93, hydrochloride]
Result: 6.54

Q: Try this compound next: CNC[C@@H](O)[C@H](c1cccc(F)c1)n1c(=O)n(-c2cccc(F)c2)c2cccc(F)c21 [Example 121, hydrochloride]
Result: 6.72

Q: Try this compound next: CNC[C@@H](O)[C@H](c1cc(F)cc(Cl)c1)N1CC(C)(C)c2ccccc21 [Example 115, hydrochloride]
Result: 6.88
